biological target: T1, human Sdc2 (human, UniProt P34741 19-144, limits assumed); assay: Octet tandem binning; saturating Ab m6 19838-20H19-AA (marked non-binding ligand)
T1 construct: Antigen of the Octet tandem binning, loaded on biosensors at 100 nM; also called huSdc2; hSdc2
T1 sequence (P34741 19-144 limits assumed): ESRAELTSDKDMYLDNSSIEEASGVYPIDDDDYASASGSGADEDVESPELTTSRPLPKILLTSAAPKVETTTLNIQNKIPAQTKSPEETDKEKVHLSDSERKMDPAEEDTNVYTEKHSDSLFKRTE
Record form. Attribute: raw competing-Ab binding signal. Fill in for each entry.

Task: What does the record list as raw competing-Ab binding signal for 8-G17-A (antibody, V domains shown, PentaMice hybridoma clone, made recombinantly in CHO cells) VH: EVQLVESGGGLVKPGGSLKLSCEASGITFSNYVMSWVRQTPEKRLEWVATISDGGSYTYYPDNLKGRFTISRDNAKNNLYLQMSHLKSEDTAMYYCVRDRYDYDGRVYAMDYWGQGTSVTVSS VL: DVVMTQTPLSLPVSLGDQASISCRSSQSLVHSNGNTYLHWYLQKPGQSPKLLIYKVSNRFSGVPDRFSGSGSGTDFTLKITRVEAEDLGVYFCSQSTHVPWTFGGGTKLEIKR ?
Result: 0.891

Task: Ok, now R3-P3-E09 (antibody, human IgG1, kappa, V domains shown, human IgG1 kappa from the phage campaign) VH: EVQLVETGGGVVQPGRSLTLSCGASEFTFSNYAMHWVRQAPGKGLEWVAVISYDGTKKYYGDSVKGRFTISRENIKNTLYLQMNSLRSEDTAVYYCARDVGKGVTATGTFDIWGQGTMVTVSS VL: AIRMTQSPSSLSASVGDRVTITCRASQGIGSYLAWFQQKPGEAPKSLIIDATRLKSGVPSRFSGSGSGTEFALTISSLRPEDFATYYCQQYNVSPLTFGGGTKVEIKR
Result: 0.293

Task: Ok, now R3-P3-C11 (antibody, human IgG1, kappa, V domains shown, human IgG1 kappa from the phage campaign) VH: EVQLVESGGGLVQPGRSLRLACEASGFTFNNYAVHWVRQAPGKGLEWVAVISYDGTNKYYSDSMKGRFTISRDNSKNTLYLQINSLRVEDTAVYFCARGNYVRRDSFDIWGQGTMVTVSS VL: DIQMTQSPPSLSASVGDRVTITCRASQSISSYLNWYQQKPGKAPKLLIYGASSLQSGVPLRFSGSGSGADFTLTISSLQPEDFATYYCQQSYISPITFGQGTRLEIKR
Result: 0.593
